// provenance: patent US12338228B2

Recorded pEC50, one value per entry.
target-of-assay: NLRP3 (Homo sapiens)
experiment: Measurement of IL-1β production in PMA-differentiated THP-1 cells (NLRP3 hIL1β)
Procedure: Serial dilutions of compounds in DMSO were added to low volume 384 well plates at 100 nl/well using an ECHO 550 acoustic dispenser (Labcyte) to achieve final starting concentration of 10 μM in assay. […] After the 2 hour incubation, the cell plates were spun in the centrifuge for 5 minutes at 1200 rpm. […] The plates were then read on the Perkin Elmer EnVision at 665/615 nm using the hTRF laser.
pEC50 field: float, defined as -log10 of concentration (mol/L).

- molecule: "Cc1cc(-c2cc[nH]n2)cc2nc(N)cc(NCc3cc[nH]n3)c12 [Example 6]"
  pEC50: 5.85

Please turn your attention to the following entry.
What the record says about Cc1cc(-c2cc[nH]n2)cc2nc(N)cc(N[C@H]3CC[C@H](O)C3)c12 [Example 5] : pEC50 is 5.40

---

target-of-assay: NLRP3 (Homo sapiens)
Construct: host or cells: PMA-differentiated THP-1 cells
experiment: Measurement of IL-1β production in PMA-differentiated THP-1 cells (NLRP3 hIL1β)
Assay type: cell-based
Recorded EC50 values for a group of compounds are listed next.
Give a bare numeral; the unit µM is implied.

Solved cases below.
- compound: "Nc1cc(N[C@H]2CCOC2)c2c(F)cc(-c3cc[nH]n3)cc2n1 [Example 10]"
  unit: "µM"
  EC50: 0.85
- compound: "Nc1nc2cc(-c3cc[nH]n3)ccc2c(NCCCO)c1F [Example 1]"
  unit: "µM"
  EC50: 0.16
- compound: "Nc1cc(NCCCO)c2c(F)cc(-c3cc[nH]n3)cc2n1 [Example 7]"
  unit: "µM"
  EC50: 0.23

Entry Nc1cc(NCCCO)c2ccc(-c3cc[nH]n3)c(F)c2n1 [Example 4] — recorded EC50 = 0.33

EC50 measured on Nc1nc2cc(-c3ccn[nH]3)ccc2c(NCc2ccccn2)c1C1CCCC1 [Example 15] = 0.44

Lookup result for Cc1c(N)nc2cc(-c3ccn[nH]3)ccc2c1NCCCO [Example 12] ; measured EC50: 2.9

Recorded EC50 (compound Cc1c(N)nc2cc(-c3ccn[nH]3)ccc2c1NCc1ccn[nH]1 [Example 13] ): 0.45

Measured EC50 of Nc1cc(NCc2cc[nH]n2)c2c(F)cc(-c3cc[nH]n3)cc2n1 [Example 9] : 0.29

---

Recorded measurements of EC50, one per entry
target-of-assay: NLRP3 (Homo sapiens, UniProt Q96P20)
Construct: host or cells: PMA-differentiated THP-1 cells
Sequence (Q96P20 whole entry): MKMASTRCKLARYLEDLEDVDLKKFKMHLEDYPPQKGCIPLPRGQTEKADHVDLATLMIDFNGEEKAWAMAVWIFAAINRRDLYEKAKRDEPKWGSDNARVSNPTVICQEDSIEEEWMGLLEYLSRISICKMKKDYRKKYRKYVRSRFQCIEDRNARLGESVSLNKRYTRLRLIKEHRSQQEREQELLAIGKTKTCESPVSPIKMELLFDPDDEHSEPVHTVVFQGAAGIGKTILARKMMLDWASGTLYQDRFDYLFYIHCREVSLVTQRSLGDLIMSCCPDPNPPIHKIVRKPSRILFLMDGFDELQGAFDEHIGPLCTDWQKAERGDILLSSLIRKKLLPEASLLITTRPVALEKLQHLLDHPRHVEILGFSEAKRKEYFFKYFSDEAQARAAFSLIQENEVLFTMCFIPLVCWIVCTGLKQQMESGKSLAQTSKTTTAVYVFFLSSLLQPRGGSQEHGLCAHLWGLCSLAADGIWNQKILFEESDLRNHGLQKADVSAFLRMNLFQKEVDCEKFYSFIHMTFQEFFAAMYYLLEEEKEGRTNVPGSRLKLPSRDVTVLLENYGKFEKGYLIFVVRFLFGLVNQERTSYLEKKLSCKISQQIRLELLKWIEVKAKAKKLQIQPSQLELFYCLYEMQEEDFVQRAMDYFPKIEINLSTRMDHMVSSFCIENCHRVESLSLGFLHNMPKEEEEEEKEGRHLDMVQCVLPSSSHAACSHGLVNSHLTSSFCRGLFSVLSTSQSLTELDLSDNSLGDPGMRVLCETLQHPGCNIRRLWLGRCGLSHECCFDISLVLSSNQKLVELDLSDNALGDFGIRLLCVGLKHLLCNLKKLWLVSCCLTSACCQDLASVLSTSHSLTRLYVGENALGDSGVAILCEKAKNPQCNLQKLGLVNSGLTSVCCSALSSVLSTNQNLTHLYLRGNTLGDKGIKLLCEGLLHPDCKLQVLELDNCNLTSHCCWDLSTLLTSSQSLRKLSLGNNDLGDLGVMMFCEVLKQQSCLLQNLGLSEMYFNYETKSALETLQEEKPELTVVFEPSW
experiment: Measurement of IL-1β production in PMA-differentiated THP-1 cells (NLRP3 hIL1β)
Format: cell-based
Provide the reading as a plain figure in nM.

Consider the following illustrative entries.
- test-smiles: "Nc1cc(NCc2ccn[nH]2)c2ccc(-c3ccn[nH]3)c(F)c2n1"
  outcome-measure: "EC50"
  reported-value: 710
- test-smiles: "Nc1nc2cc(-c3cc[nH]n3)ccc2c(NCCCO)c1Cl"
  outcome-measure: "EC50"
  reported-value: 350
- test-smiles: "Nc1nc2cc(-c3ccn[nH]3)ccc2c(NCCO)c1C1CCCC1"
  outcome-measure: "EC50"
  reported-value: 260
- test-smiles: "Nc1cc(N[C@H]2CC[C@H](O)C2)c2c(F)cc(-c3cc[nH]n3)cc2n1"
  outcome-measure: "EC50"
  reported-value: 230

Note: attention shifts to another entry.
Form: compound = `Nc1nc2cc(-c3cc[nH]n3)ccc2c(N[C@H]2CC[C@H](O)C2)c1F` ; EC50 = 600
